These measurements were taken from PubChem BioAssay (NCI).

Test system: TK-10 renal
Experiment: NCI-60 one-dose screen, 48 h (100 = growth as untreated, 0 = no growth, -100 = all killed)
Conditions: 10 µM unless noted
This is part of a sample that, as a whole, favours compounds with a hit. Of some 83,000 tested, about 20% had one in any assay.
Readout type: growth (%)
Write down the numeric answer in % and omit the unit.

See these solved cases before continuing.
COc1ccc(/C(=N\O)c2cc(C)c(OC)c(C)c2)cc1O ... 72
CC(C)(C)c1nn(-c2ccccc2)c2c1COCN2Cc1ccc(Cl)cc1 ... 117
CC(C)NS(=O)(=O)c1cccc(-c2ccc3c(=O)n(CCCN)c4c(c3c2)C(=O)c2ccccc2-4)c1 ... 96.8
COc1ccc(/C=C(/C(=O)N2CCCC2)c2cc(OC)c(OC)c(OC)c2)cc1 ... 71.3
COc1cc(C)ccc1Oc1nc(Nc2ccc(N3CCOCC3)cc2)ncc1N=Cc1cc(C(F)(F)F)cc(C(F)(F)F)c1 ... 81.6

Challenge: Would you mind telling me what growth value was observed for O=C(O)c1ccc(-n2cc(/C=N/Nc3ccc(Cl)cc3Cl)c(-c3ccccc3)n2)cc1 ?
Response given: 109

Challenge: Continue with COc1ccc(NC(=O)c2sc3nc(C)c(C(C)=O)cc3c2N)cc1
Response given: 75.2

Challenge: How about Cc1ccc(SC2c3ccc(C)cc3Oc3nc(N)c(C#N)c(N)c32)cc1 (centres undefined) ?
Response given: 69.3

Challenge: Same read-out for COc1ccc(Nc2cc(NC(=O)CNc3cc(OC)c(Cl)c(OC)c3Cl)ncn2)cc1 ?
Response given: 93.1
